The measurements presented in this section are drawn from patent US20070218069A1.

molecular target: T1, K48-linked diubiquitin (human, UniProt P0CG48 1-76, isopeptide bond between Lys48 of one ubiquitin and the C-terminal Gly of the other); assay: SPR Biacore, antigen immobilized
T1 construct: Boston Biochem
For each of the binders below, state its Kd.
Please give a number only; it is taken to be in nM.

Kd reported for this binder Fab apu2.06 (Fab, V domains shown) VH: EVQLVESGGGLVQPGGSLRLSCAASGFNISYSSMHWVRQAPGKGLEWVASIYSYYSYTSYADSVKGRFTISADTSKNTAYLQMNSLRAEDTAVYYCARGYSWFNAIDYWGQGTLVTVSS VL: DIQMTQSPSSLSASVGDRVTITCRASQSVSSAVAWYQQKPGKAPKLLIYSASSLYSGVPSRFSGSRSGTDFTLTISSLQPEDFATYYCQQSSYSSLITFGQGTKVEIK : 1.87

Kd reported for this binder Fab apu2.02 (Fab, V domains shown) VH: EVQLVESGGGLVQPGGSLRLSCAASGFNIFYGGIHWVRQAPGKGLEWVASIYSYYSYTSYADSVKGRFTISADTSKNTAYLQMNSLRAEDTAVYYCARSYSYYSAMDYWGQGTLVTVSS VL: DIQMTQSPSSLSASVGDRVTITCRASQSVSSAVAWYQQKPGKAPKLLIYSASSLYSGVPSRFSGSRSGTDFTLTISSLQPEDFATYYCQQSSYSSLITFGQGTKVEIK : 9.16
